- system tested: T1, human MSLN-FL-his protein (human, UniProt Q13421 296-580)
- T1 construct: made in HEK293E cells, purified on nickel column; also called hMSLN-FL-his; human MSLN full-length protein; not shown: His tag
- T1 sequence (Q13421 other isoform, or with tags, fused parts or gaps): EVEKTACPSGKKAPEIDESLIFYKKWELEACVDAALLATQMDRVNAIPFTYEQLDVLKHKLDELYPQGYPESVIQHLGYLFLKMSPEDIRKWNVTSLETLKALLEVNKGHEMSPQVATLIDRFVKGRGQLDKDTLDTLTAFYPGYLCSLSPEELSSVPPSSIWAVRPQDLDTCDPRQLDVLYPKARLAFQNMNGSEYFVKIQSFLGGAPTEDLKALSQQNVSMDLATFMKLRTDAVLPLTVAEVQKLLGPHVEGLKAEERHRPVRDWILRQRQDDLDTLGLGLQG
- run description: SPR (Biacore), antibody captured on Protein A chip;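 note: measured at 25 °C, analyte injected 240 s in five twofold dilutions from 200 nM, dissociation up to 600 s, double-referenced, fitted with Langmuir 1:1 model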
measured endpoint: kon (M⁻¹ s⁻¹)
Respond with the bare value in M⁻¹ s⁻¹.

Prompt line: Any idea what kon was measured for S009-F2.47.1 (antibody, human IgG1, kappa, V domains shown, human-murine chimeric antibody, human IgG1/kappa constant regions) VH: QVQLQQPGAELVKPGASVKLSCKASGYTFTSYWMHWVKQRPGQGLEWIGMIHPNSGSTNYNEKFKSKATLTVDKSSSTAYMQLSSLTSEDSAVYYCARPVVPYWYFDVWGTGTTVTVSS VL: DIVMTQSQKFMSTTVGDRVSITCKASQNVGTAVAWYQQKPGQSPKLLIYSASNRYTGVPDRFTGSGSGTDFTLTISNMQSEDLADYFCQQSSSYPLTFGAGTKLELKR ?
Response line: 2.01e+06

Prompt line: Param item: S009-F1.62.9 (antibody, human IgG1, kappa, V domains shown, human-murine chimeric antibody, human IgG1/kappa constant regions) VH: EVQLQQSGADLVKPGASVKLSCTVFGLNFKDTFMHWVRQRPEQGLEWIGRIDPANDNSIYGPKFQDKATITADTSSNTAYLHLSSLTSEDTAVYYCLYFDNWGHGTTLTVSS VL: DIVMTQAASSEPVTPGESVSISCRSDKSLLHSNGHNYLYWFLQRPGQSPHLLIYRMSNLASGVPDRFSGSGSGTAFTLRISRVEAEDVGVYYCMQHLEYPLTFGAGTKLELKR
Response line: 467

Prompt line: Param item: S009-F6-76.1 (antibody, human IgG1, kappa, V domains shown, human-murine chimeric antibody, human IgG1/kappa constant regions) VH: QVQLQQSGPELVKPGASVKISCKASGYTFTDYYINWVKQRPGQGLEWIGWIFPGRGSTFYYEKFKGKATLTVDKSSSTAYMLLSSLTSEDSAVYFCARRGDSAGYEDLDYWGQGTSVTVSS VL: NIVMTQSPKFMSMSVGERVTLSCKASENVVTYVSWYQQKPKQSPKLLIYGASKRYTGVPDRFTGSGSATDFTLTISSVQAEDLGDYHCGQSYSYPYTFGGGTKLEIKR
Response line: 36700

Prompt line: Param item: S009-F3.45.21 (antibody, human IgG1, kappa, V domains shown, human-murine chimeric antibody, human IgG1/kappa constant regions) VH: DVQLQESGPGLVKPSQSLSLTCSVTGDSITSGYYWNWIRQFPGNKLEWMGFIRFDGTNNYNPSLKNRISITRDTSKNQFFLKLNSVTTEDTATYYCAREGSYAPAWFAYWGQGTLVTVSA VL: QIVLTQSPAIMSASPGEKVTMTCSASSSLSYMYWYQQKPGSSPRLLIYDTSNLASGVPVRFSGSGSGTSYSLTISRMEAEDAATYYCQQWSSYPPTFGGGTKLEIKR
Response line: 552000

Prompt line: Param item: S009-F2.21.4 (antibody, human IgG1, kappa, V domains shown, human-murine chimeric antibody, human IgG1/kappa constant regions) VH: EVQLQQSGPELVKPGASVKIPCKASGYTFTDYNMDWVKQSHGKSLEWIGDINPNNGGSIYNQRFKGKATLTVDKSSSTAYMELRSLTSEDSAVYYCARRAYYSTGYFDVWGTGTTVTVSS VL: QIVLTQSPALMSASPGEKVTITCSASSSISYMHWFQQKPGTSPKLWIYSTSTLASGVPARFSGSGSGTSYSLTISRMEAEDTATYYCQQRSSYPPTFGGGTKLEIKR
Response line: 780000
